- Test system: SF-539
- METHOD: NCI tumour cell line growth inhibition, 48 h
Activity calls are given as the source filed them. Cut-off read from the data, not from the text of the source: active = GI50 up to about 1.1 µM and inactive = higher.
In this exercise, the only acceptable responses are 1 for active, 0 for inactive

Exam item: How did this test come out for `O=C1c2c(O)cccc2C(C(=O)CCCCC(=O)C2c3cccc(O)c3C(=O)c3c(O)cccc32)c2cccc(O)c21` ?
Marked response: 1

Exam item: Next entry: C=CCC1C2CCC(O[Si](C(C)C)(C(C)C)C(C)C)(C(C(=O)OC)C2)C1O (stereo not given)
Marked response: 0

Exam item: Next entry: O=[N+]([O-])c1ccc(Cl)c(CNc2ncnc3c2ncn3C2CCCCO2)c1 (stereo not given)
Marked response: 0

Exam item: Next entry: `COc1ccc(/C(Cl)=C(\C=O)c2ccc(Cl)cc2)cc1OC`
Marked response: 0

Exam item: Next entry: `O=C1NC(=O)c2c1n(Cc1ccccc1)c(=O)n2Cc1ccccc1`
Marked response: 0

----------
- Tested on: HL-60
- METHOD: NCI tumour cell line growth inhibition, 48 h
Active and inactive are the calls of the source. Rule as the data show it: active = GI50 up to about 1.1 µM and inactive = higher.
Assignment: determine reported GI50 for the given molecules.

Exam item: # query: GI50 of entry CCN1CCC(O)(c2ccc([N+](=O)[O-])cc2)C(C(=O)c2ccc([N+](=O)[O-])cc2)C1 (stereo unspecified)
Marked response: 41.5 µM (inactive)

Exam item: Next entry: `CCOC(=O)C[n+]1cccc(C2(c3cc4ccccc4[nH]3)OCCO2)c1`
Marked response: > 100 µM (inactive)

Exam item: Next entry: COC(=O)CCC1=NOC(CC2CC(CCC(=O)OC)=NO2)C1 (stereo unspecified)
Marked response: > 100 µM (inactive)

Exam item: Next entry: COC(=O)C(C#N)C1NC(=O)c2ccccc21 (stereo unspecified)
Marked response: > 100 µM (inactive)

Exam item: Next entry: `O=[N+]([O-])c1ccc2sc(/C=N/c3ccccn3)cc2c1`
Marked response: 28.5 µM (inactive)

Exam item: Next entry: `O=[N+]([O-])c1ccc2nnnn2c1`
Marked response: 16 µM (inactive)

----------
- Tested on: SK-MEL-5
- METHOD: NCI tumour cell line growth inhibition, 48 h
Active and inactive are the calls of the source. Rule as the data show it: active = GI50 up to about 1.1 µM and inactive = higher.
In this exercise, the only acceptable responses are active, inactive

Exam item: How did this test come out for O=C(CN1C(=O)c2ccccc2C1=O)OCC1CCCN2CCCCC12 (stereo not given) ?
Marked response: inactive

Exam item: Next entry: N#CC1=C(N)OC(c2cccc([N+](=O)[O-])c2)C1(C#N)C#N (stereo not given)
Marked response: inactive

Exam item: Next entry: `COc1ccc(-c2c3ccccc3c(-c3ccc(OC)cc3)c3ccccc23)cc1`
Marked response: inactive

Exam item: Next entry: CN(C)CCC1(C2=CCCC2)CC/C(=C\c2ccccc2Cl)C1=O (stereo not given)
Marked response: inactive

Exam item: Next entry: `Cc1ccc(S(=O)(=O)Nc2cccc(C)c2C)cc1`
Marked response: inactive

Exam item: Next entry: `COc1ccc2[nH]c3c4c(ccc3c2c1)C(=O)C=CC4=O`
Marked response: inactive

Exam item: Next entry: `O=C(Cc1ccc(O)c(O)c1)NCc1c[nH]c2ccccc12`
Marked response: inactive

Exam item: Next entry: `C=C1[C@@H](C)[C@H]2[C@H](Cc3ccccc3)NC(=O)[C@]23OC(=O)/C=C/[C@H](O)CCC[C@@H](C)C/C=C/[C@H]3[C@@H]1O`
Marked response: inactive

Exam item: Next entry: `Cc1noc(/N=C2\C=C(O)C(=O)c3ccccc32)c1C`
Marked response: active

Exam item: Next entry: `Cn1c(=O)c2[nH]c(-n3nc(-c4ccccc4)cc3N)nc2n(C)c1=O`
Marked response: inactive

----------
- System: HL-60
- METHOD: NCI tumour cell line growth inhibition, 48 h
Activity calls are given as the source filed them. Cut-off read from the data, not from the text of the source: active = GI50 up to about 1.1 µM and inactive = higher.
In this exercise, the only acceptable responses are active, inactive

Exam item: How did this test come out for N#CC1=C(N)OC(c2cccc([N+](=O)[O-])c2)C1(C#N)C#N (stereo not given) ?
Marked response: inactive

Exam item: Next entry: `CN(C)CCNC(=O)Cn1ccc(=O)c2c([N+](=O)[O-])cccc21`
Marked response: inactive

Exam item: Next entry: `O=C(NC1=C(Cl)C(=O)c2ccccc2C1=O)C(=O)c1c(O)c2ccccc2oc1=O`
Marked response: inactive

Exam item: Next entry: `CC1=C(C(=O)Nc2ccccc2C)C(c2ccccc2C)C(C(=O)Nc2ccccc2C)=C(C)N1`
Marked response: inactive

Exam item: Next entry: `COc1cc(/C=C2\C[C@H]3[C@@H]4CC=C5C[C@@H](O)CC[C@]5(C)[C@H]4CC[C@]3(C)[C@H]2O)cc(OC)c1OC`
Marked response: inactive

Exam item: Next entry: `N#Cc1nc(-c2ccccc2C(=O)O)oc1N`
Marked response: inactive

Exam item: Next entry: `CCCC(=O)OC1=C(c2ccccc2)Sc2ccccc2-n2cccc21`
Marked response: inactive

Exam item: Next entry: CC1OC(n2cc(F)c(=O)[nH]c2=O)C=CC1O (stereo not given)
Marked response: inactive

Exam item: Next entry: CCOC(=O)C1(Cc2ccc(C)cc2)Cc2ccc(C)cc2C1=O (stereo not given)
Marked response: inactive

Exam item: Next entry: `CNC(=O)OCc1cnc([N+](=O)[O-])n1C`
Marked response: inactive

Exam item: Next entry: `COc1c(Cl)nc2ccccc2c1N=[N+]=[N-]`
Marked response: inactive

Exam item: Next entry: O=[N+]([O-])c1ccc(Cl)c(CNc2ncnc3c2ncn3C2CCCCO2)c1 (stereo not given)
Marked response: inactive

Exam item: Next entry: `Cc1nc(N)c(N2CCN(C(=O)O)CC2)c(O)n1`
Marked response: inactive

Exam item: Next entry: CN(C)CCC1(C2=CCCC2)CC/C(=C\c2ccccc2Cl)C1=O (stereo not given)
Marked response: inactive

Exam item: Next entry: `CN(Cc1cnc2c(N)nc(N)nc2n1)c1ccc(Cl)cc1`
Marked response: inactive

Exam item: Next entry: `O=c1cc(NCC2CCCCC2)[nH]c(=O)[nH]1`
Marked response: inactive

Exam item: Next entry: `COC(=O)/C=C/c1cnc2c(c1)oc(=O)n2C`
Marked response: inactive

Exam item: Next entry: `O=c1[nH]cnc2[nH]nnc12`
Marked response: active

Exam item: Next entry: `C=C(C[N+](C)(C)C)N/N=C/c1oc(-c2ccc(OC)c(OC)c2)c(-c2ccc(OC)c(OC)c2)c1[N+](=O)[O-]`
Marked response: inactive

Exam item: Next entry: `O=c1c(Cc2ccccc2)c(-c2ccccc2)[nH]n1C1=NCCN1`
Marked response: inactive

Exam item: Next entry: `COc1ccc2[nH]c3c4c(ccc3c2c1)C(=O)C=CC4=O`
Marked response: active

Exam item: Next entry: COc1cc(C2c3cc4c(cc3OC(NCc3ccccc3)C2C)OCO4)cc(OC)c1OC (stereo not given)
Marked response: active

Exam item: Next entry: `c1ccc2cc(-c3cc(-c4cc(-c5ccc6ccccc6c5)on4)no3)ccc2c1`
Marked response: inactive

Exam item: Next entry: O=C(CN1C(=O)c2ccccc2C1=O)OCC1CCCN2CCCCC12 (stereo not given)
Marked response: inactive

Exam item: Next entry: `Cc1ccc(N(Cc2ccccc2)Cc2ccccc2)cc1`
Marked response: inactive

Exam item: Next entry: S=P(C1CCCCC1)(C1CCCCC1)C(c1cccnc1)N1CCCC1 (stereo not given)
Marked response: inactive

Exam item: Next entry: `CN(C)c1ccc(C=C2C(=O)NC(=S)NC2=O)c2ccccc12`
Marked response: inactive

Exam item: Next entry: COC(=O)C1C(C(=O)OC)C2C(=O)C3C(C(=O)OC)C(C(=O)OC)C3C(=O)C12 (stereo not given)
Marked response: inactive

Exam item: Next entry: Cc1cn(C2CC(O)C(COC(=O)NCCC(F)(F)C(F)(F)C(F)(F)C(F)(F)F)O2)c(=O)[nH]c1=O (stereo not given)
Marked response: inactive

Exam item: Next entry: `[N-]=[N+]=Nc1c(N2CCOCC2)c(Cl)nc2ccccc12`
Marked response: inactive

Exam item: Next entry: CC1(C)C2CCC(N)(C2)C1N (stereo not given)
Marked response: inactive

Exam item: Next entry: Nc1ncnc2c1nnn2C1C=CC(CP(=O)(O)O)C1 (stereo not given)
Marked response: inactive

Exam item: Next entry: `O=C(Nc1ccc(Cl)cc1)c1cc2c(cc1Cl)SC(NNCCO)=NS2(=O)=O`
Marked response: inactive

Exam item: Next entry: NC1N=C(c2ccc(Cl)cc2)C2=C(N1)c1ccccc1CC2 (stereo not given)
Marked response: inactive

Exam item: Next entry: COc1ccc(OC)c(C2CCCc3c2cnc2nc(N)nc(N)c32)c1 (stereo not given)
Marked response: active

Exam item: Next entry: `COC(=O)C(=NNc1ccccc1[N+](=O)[O-])C(=O)OC`
Marked response: inactive

Exam item: Next entry: NC(=O)c1c[se]c(C2OC(CO)C(O)C2O)n1 (stereo not given)
Marked response: active

Exam item: Next entry: CC(NC1=CC(=O)c2cccnc2C1=O)C(O)c1ccccc1 (stereo not given)
Marked response: inactive

Exam item: Next entry: `CSC(=S)N/N=C(\C)c1cccc(C)n1`
Marked response: active

Exam item: Next entry: `O=C1/C(=C/c2ccco2)N=C2Sc3c([nH]cnc3=O)N12`
Marked response: inactive
